- Assay target: human CB2 receptors (Homo sapiens (Human))
- Sequence (P34972 whole entry): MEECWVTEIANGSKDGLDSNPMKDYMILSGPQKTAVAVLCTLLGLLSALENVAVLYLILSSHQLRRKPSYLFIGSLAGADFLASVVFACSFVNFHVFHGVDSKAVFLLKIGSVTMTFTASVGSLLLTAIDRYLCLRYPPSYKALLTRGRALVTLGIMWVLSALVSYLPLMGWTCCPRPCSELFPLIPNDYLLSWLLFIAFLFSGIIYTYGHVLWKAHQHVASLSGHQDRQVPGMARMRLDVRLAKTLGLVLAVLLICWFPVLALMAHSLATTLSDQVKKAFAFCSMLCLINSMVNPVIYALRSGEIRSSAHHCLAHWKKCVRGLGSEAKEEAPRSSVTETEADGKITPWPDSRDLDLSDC
pKi: −log10 of the molar value.

Molecular string	pKi
CC(C)(O)COc1ccc(C(F)(F)F)cc1C(=O)/N=c1\sc2ccncc2n1CCCC(F)(F)F	8.08
CCCCn1/c(=N/C(=O)c2cc(C(F)(F)F)ccc2OCCC(C)(C)O)sc2ccncc21	7.46
Cc1s/c(=N\C(=O)c2cc(C(F)(F)F)ccc2OC[C@@H]2CCCN2C)n(CC2CC2)c1C	7.52
CCCCn1c(C(=O)OC)c(C(C)C)s/c1=N\C(=O)c1cc(C(F)(F)F)ccc1ONC(C)(C)C	6.89
C=C=CCn1cc(C(C)(C)C)s/c1=N\C(=O)c1cc(C(F)(F)F)ccc1ONC(C)(C)C	7.77
CC(C)Cn1cc(C(C)(C)C)s/c1=N\C(=O)c1cc(Br)ccc1OC[C@@H]1CCCN1C	7.57
CC(=O)OCCOc1ccc(C(F)(F)F)cc1C(=O)/N=c1\sc(C(C)(C)C)cn1CC(C)C	7.80
CCCCn1/c(=N/C(=O)c2cc(C(F)(F)F)ccc2OC[C@H](C)O)sc2ncccc21	8.85
